Experiment: resazurin metabolic signal in A549 cells – cell-based, resazurin fluorescence, 24 h, PK04 Diversity Set, profiling panel (AID 1171); also: test concentration not given here
Settings: A549 viability, higher = more signal, called active from +8 up or from −8 down
Please go through the items and note down their z-score.
Answers are plain numbers.

- Compound: "CN1C(=O)C2C=CC(C(O)C=Cc3ccc([N+](=O)[O-])cc3)N(Nc3ccccc3)C2C1=O (stereo not drawn)"
  z-score: -0.408
- Compound: "NC(=O)[C@@H]1[C@H]2C(=O)O[C@H](c3ccccc3)[C@H](c3ccccc3)N2[C@H](c2ccc(O)cc2)[C@@]12C(=O)Nc1ccc(C#CC3=CCCCC3)cc12"
  z-score: -0.274
- Compound: "COc1ccc([C@H]2OC[C@@H]3CCC(=O)N32)cc1"
  z-score: 0.109

Batch request: z-score per item, same order as input.
1. Cc1ccc(C2C3C(=O)CC4C(=O)N(c5ccccc5)C(=O)C4C3CN2S(=O)(=O)c2ccc(C)cc2)cc1 (stereo not drawn)
2. C=C(CCCC)/C(=C/C[C@H](OC(C)=O)c1ccc(OCCO)cc1)c1cnc2ccccc2c1
3. CC=CC(O)C1C=CC2C(=O)N(C)C(=O)C2N1N(c1ccccc1)c1ccccc1 (stereo not drawn)
4. CC(C)N1CC=CC23O[C@@H]4C=CCOC(=O)[C@@H]4[C@H]2C(=O)N(CCCCCO)[C@@H]3C1=O (stereo partly drawn)
5. CCCCC(=C=CC[C@H](O)c1cccc(OCCO)c1)C[C@H](O)c1ccccn1

**Result**
1. -0.821
2. 1.24
3. -0.522
4. 0.0829
5. 2.05

====

Biological target: Alpha-bungarotoxin (Bungarus multicinctus) (UniProt P60615)
Sequence (P60615 whole entry, looked up): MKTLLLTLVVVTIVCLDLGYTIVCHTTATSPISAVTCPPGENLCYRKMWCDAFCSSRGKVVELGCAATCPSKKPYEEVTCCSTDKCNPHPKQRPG
Test: compounds binding labelled alpha-BTX control protein – biochemical, small-molecule microarray, Alexa647 label, 635/667 nm fluorescence, artefact control for SMM control protein annotation, profiling panel (AID 1117)
Conditions: alpha-BTX-A647 binding fluorescence, higher = more signal
Answer each item with its documented composite z-score.
Numbers only.

- Substance Smiles: "COCCOC(=O)N1C(=O)[C@@]2(c3cc(C#CC4=CCCCC4)ccc31)[C@H](C(N)=O)[C@H]1C(=O)O[C@H](c3ccccc3)[C@H](c3ccccc3)N1[C@@H]2c1ccc(O)cc1"
  Numeric Readout: 1.51
- Substance Smiles: "CC(C)Cc1ccc(CN2CC[C@@H](N)C2)cc1"
  Numeric Readout: -0.118
- Substance Smiles: "O=C1[C@H]2C=C(Br)[C@H](C[C@@H]2OCCCCCCO)[C@@]12CO2"
  Numeric Readout: -1.17

We now examine a further molecule.
**Query** Please look up its composite z-score: COC(=O)C[C@H]1O[C@@H](CCc2ccccc2)[C@@H](C)[C@@H]1[Si](C)(C)c1ccc(OC)cc1
**Result** -0.763

====

Assignment: determine reported composite z-score for the given compounds.
System: Wnt5a (protein binding on small-molecule microarray)
Experiment: small molecules binding Wnt5a protein – biophysical, small-molecule microarray, 635/667 nm fluorescence, primary screen (AID 1142);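 also: fluorescence read at 667 nm with signal to noise per printed feature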
Details: 635 nm fluorescence, higher = more signal
One number for each entry.

Could you report composite z-score for every entry in the following list?
1. C=C(C(=O)CC[C@H](OC(C)=O)c1ccccc1OCCO)C(C)C
2. COc1ccc([Si](C)(C)[C@@H]2[C@@H](CCn3cc([C@H](O)c4ccccc4)nn3)O[C@]3(C(=O)N(Cc4cccc(N5CCC5=O)c4)c4ccccc43)[C@H]2C)cc1

**Result**
-0.138
-0.166
